- MEASUREMENT_PROTOCOL: Phase 1 single ascending dose trial of intravenous HBI-3000: pharmacokinetics
- Assay type: in vivo
- TEST_SETTINGS: human, plasma; 360 mg single iv infusion over 30 min, healthy subjects, N=5
Where a name gives a salt, the structure may show the parent alone.
OBSERVED_PROPERTY: AUC(0-inf)
Record the result as a number with its unit.

Inquiry: Look up AUC(0-inf) for this molecule: COc1ccc(S(=O)(=O)NCc2cc(CN3CCCC3)c(O)c(CN3CCCC3)c2)cc1 [HBI-3000, sulcardine sulfate]
Reply text: 3830 ng·h/mL

---

- MEASUREMENT_PROTOCOL: Phase 1 single ascending dose trial of intravenous HBI-3000: pharmacokinetics
- Type: in vivo
- TEST_SETTINGS: human, plasma, intravenous; 350 mg dose; read-out: Tmax
Where a name gives a salt, the structure may show the parent alone.
OBSERVED_PROPERTY: Tmax (min)
Express your answer in min, writing the number without its unit.

Inquiry: Look up Tmax for this molecule: COc1ccc(S(=O)(=O)NCc2cc(CN3CCCC3)c(O)c(CN3CCCC3)c2)cc1 [HBI-3000, sulcardine sulfate]
Reply text: 27

---

- MEASUREMENT_PROTOCOL: Phase 1 single ascending dose trial of intravenous HBI-3000: pharmacokinetics
- Assay type: in vivo
- TEST_SETTINGS: human, plasma; 600 mg single iv infusion over 30 min, healthy subjects, N=12; read-out: Tmax Mean
Counter-ions that a name gives are not always drawn.
OBSERVED_PROPERTY: Tmax (min)
Express your answer in min, writing the number without its unit.

Inquiry: Look up Tmax for this compound: COc1ccc(S(=O)(=O)NCc2cc(CN3CCCC3)c(O)c(CN3CCCC3)c2)cc1 [HBI-3000, sulcardine sulfate]
Reply text: 27.6

---

- MEASUREMENT_PROTOCOL: Phase 1 single ascending dose trial of intravenous HBI-3000: pharmacokinetics
- Format: in vivo
- TEST_SETTINGS: human, plasma, iv, 20 mg, 20 mg single iv infusion over 30 min, healthy subjects, N=6; read-out: AUC (0-24)
Counter-ions that a name gives are not always drawn.
OBSERVED_PROPERTY: AUC(0-t) (ng·h/mL)
Express your answer in ng·h/mL, writing the number without its unit.

Inquiry: Look up AUC(0-t) for this compound: COc1ccc(S(=O)(=O)NCc2cc(CN3CCCC3)c(O)c(CN3CCCC3)c2)cc1 [HBI-3000, sulcardine sulfate]
Reply text: 89.7

---

- MEASUREMENT_PROTOCOL: Phase 1 single ascending dose trial of intravenous HBI-3000: pharmacokinetics
- Format: in vivo
- TEST_SETTINGS: human, plasma, iv, 360 mg, 360 mg single iv infusion over 30 min, healthy subjects, N=5; read-out: AUC (0-last)
Where a name gives a salt, the structure may show the parent alone.
OBSERVED_PROPERTY: AUC(0-t) (ng·h/mL)
Express your answer in ng·h/mL, writing the number without its unit.

Inquiry: Look up AUC(0-t) for this molecule: COc1ccc(S(=O)(=O)NCc2cc(CN3CCCC3)c(O)c(CN3CCCC3)c2)cc1 [HBI-3000, sulcardine sulfate]
Reply text: 3470

---

- MEASUREMENT_PROTOCOL: Phase 1 single ascending dose trial of intravenous HBI-3000: pharmacokinetics
- Format: in vivo
- TEST_SETTINGS: human, plasma; 20 mg single iv infusion over 30 min, healthy subjects, N=6; read-out: Tmax Mean
Counter-ions that a name gives are not always drawn.
OBSERVED_PROPERTY: Tmax (min)
Express your answer in min, writing the number without its unit.

Inquiry: Look up Tmax for this molecule: COc1ccc(S(=O)(=O)NCc2cc(CN3CCCC3)c(O)c(CN3CCCC3)c2)cc1 [HBI-3000, sulcardine sulfate]
Reply text: 25.2
